pIC50 reference
- Study System: JAK1 (Homo sapiens)
- Construct: The kinase domain of humanJAK1 was amplified from U937mRNA; His tag (from pFastBac HTb vector; nickel chelate purification) (N); made in house; host or cells: baculovirus; virus made in Sf9, large-scale expression in High Five insect cells
- Sequence (P23458 875-1153 limits assumed): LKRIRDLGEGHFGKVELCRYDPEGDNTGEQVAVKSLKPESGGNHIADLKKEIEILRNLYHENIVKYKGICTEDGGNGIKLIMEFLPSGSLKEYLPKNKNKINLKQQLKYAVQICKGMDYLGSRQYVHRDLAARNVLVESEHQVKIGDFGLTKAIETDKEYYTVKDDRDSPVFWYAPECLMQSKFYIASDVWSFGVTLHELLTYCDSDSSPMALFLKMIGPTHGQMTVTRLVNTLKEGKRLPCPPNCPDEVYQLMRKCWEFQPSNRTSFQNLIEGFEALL
- Protocol: JAK1 kinase domain capture-based ELISA kinase assay
- Format: biochemical
- Experimental Conditions: Table 6; inhibit 50% of activity at 50 μM
pIC50: −log10 of the molar value.

>  <Smiles Input>
c1cncc(-c2cn3ccnc3c(NCCc3ccncc3)n2)c1

>  <Study System>
JAK1 (Homo sapiens)

>  <pIC50>
< 4.30

$$$$
>  <Smiles Input>
FC(F)(F)c1cc(-c2cn3ccnc3c(NCC3CCOCC3)n2)cc(C(F)(F)F)c1

>  <Study System>
JAK1 (Homo sapiens)

>  <pIC50>
< 4.30

$$$$
>  <Smiles Input>
c1coc(-c2cn3ccnc3c(Nc3ccc(N4CCOCC4)cc3)n2)c1

>  <Study System>
JAK1 (Homo sapiens)

>  <pIC50>
> 4.30

$$$$

###

- Study System: JAK2 (Homo sapiens, UniProt O60674)
- Construct: The kinase domain of humanJAK2 was amplified from U937mRNA; His tag (from pFastBac HTc vector; nickel chelate purification) (N); made in house; host or cells: baculovirus; virus made in Sf9, large-scale expression in High Five insect cells
- Sequence (O60674 849-1124 limits assumed): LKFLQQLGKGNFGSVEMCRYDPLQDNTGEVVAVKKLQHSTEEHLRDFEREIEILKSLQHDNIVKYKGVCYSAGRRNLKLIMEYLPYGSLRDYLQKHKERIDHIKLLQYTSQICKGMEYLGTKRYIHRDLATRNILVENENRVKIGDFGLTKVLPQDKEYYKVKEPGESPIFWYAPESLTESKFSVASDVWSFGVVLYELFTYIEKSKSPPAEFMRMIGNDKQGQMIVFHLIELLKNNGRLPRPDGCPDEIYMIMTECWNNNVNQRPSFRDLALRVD
- Protocol: JAK2 kinase domain capture-based ELISA kinase assay
- Format: biochemical
- Experimental Conditions: Table 6; inhibit 50% of activity at 50 μM
pIC50: −log10 of the molar value.

>  <Molecule>
CN1CCCN(c2nc(-c3cccc4ccccc34)cn3ccnc23)CC1

>  <Study System>
JAK2 (Homo sapiens, UniProt O60674)

>  <pIC50>
< 4.30

$$$$
>  <Molecule>
Cc1ccc(S(=O)(=O)Nc2ccc(Nc3nc(-c4ccc(CCC(=O)O)cc4)cn4ccnc34)cc2)cc1

>  <Study System>
JAK2 (Homo sapiens, UniProt O60674)

>  <pIC50>
> 4.30

$$$$
>  <Molecule>
CCCC/C=C/c1cn2ccnc2c(NC2CCC(O)CC2)n1 (stereo not drawn)

>  <Study System>
JAK2 (Homo sapiens, UniProt O60674)

>  <pIC50>
< 4.30

$$$$
>  <Molecule>
O=C(NCCO)c1ccc(-c2cn3ccnc3c(Nc3ccccc3)n2)cc1

>  <Study System>
JAK2 (Homo sapiens, UniProt O60674)

>  <pIC50>
> 4.30

$$$$
>  <Molecule>
CN(C)c1ccc(-c2cn3ccnc3c(NC3CC3)n2)cc1

>  <Study System>
JAK2 (Homo sapiens, UniProt O60674)

>  <pIC50>
< 4.30

$$$$
>  <Molecule>
Oc1ccc(-c2cn3ccnc3c(N3CCOCC3)n2)cc1 [drawing 90]

>  <Study System>
JAK2 (Homo sapiens, UniProt O60674)

>  <pIC50>
> 4.30

$$$$

###

IC50 reference
- Study System: JAK2 (Homo sapiens)
- Construct: The kinase domain of humanJAK2 was amplified from U937mRNA; His tag (from pFastBac HTc vector; nickel chelate purification) (N); made in house; host or cells: baculovirus; virus made in Sf9, large-scale expression in High Five insect cells
- Protocol: JAK2 kinase domain capture-based ELISA kinase assay
- Format: biochemical
- Experimental Conditions: Table 6; inhibit 50% of activity at 50 μM

>  <Smiles Input>
COc1ccc(Nc2nc(-c3ccccc3F)cn3ccnc23)cn1

>  <IC50>
< 50 µM

$$$$
>  <Smiles Input>
CC(=O)Nc1ccc(Nc2nc(-c3ccc4ccccc4c3)cn3ccnc23)cc1

>  <IC50>
< 50 µM

$$$$
>  <Smiles Input>
CCCC/C=C/c1cn2ccnc2c(NCc2ccncc2)n1

>  <IC50>
> 50 µM

$$$$

// data source = patent US20060069084A1
